conditions: buffer; pH 7.4; 200.0 µM
Consider the following compounds; for each one, report its solubility kinetic.

Sample answers from the record:
[[record]]
compound = "O=C(CCl)N1CCN(C(=O)C2COc3ccccc3O2)CC1 (centres undefined)"
metric_name = "solubility kinetic"
endpoint_result = "> 48.7 µg/mL"

[[record]]
compound = "CCc1cc(C(=O)Nc2ncccc2O)sc1C"
metric_name = "solubility kinetic"
endpoint_result = "> 39.3 µg/mL"

[[record]]
compound = "CN1CCN(S(=O)(=O)c2csc(C(N)=O)c2)CC1"
metric_name = "solubility kinetic"
endpoint_result = "> 43.4 µg/mL"


Asked: Returns the measured solubility kinetic for the input compound. Input: CCOC(=O)Cc1csc(NC(=O)c2c(C)noc2C)n1
Given back: > 46.4 µg/mL
